- Test system: HCT-116
- Experiment: Cytotoxicity against human HCT116 cells after 4 days by MTT assay
- Format: functional, cell-based
- Protocol Conditions: HCT-116, 96 h
Listed here: items and their measured IC50.
The response must be a number in nM with no trailing unit.

{"Compound": "C=CCOc1cc2c(cc1OC)[C@@]1(CS[C@@H]3c4c(OC(C)=O)c(C)c5c(c4[C@@H](COC1=O)N1[C@@H]3[C@H]3c4c(cc(C)c(OC)c4OCC=C)C[C@@H]([C@@H]1C#N)N3C)OCO5)N(CC=C)CC2", "Target Desc": "HCT-116", "IC50 (nM)": 620}

According to the records, this compound COc1cc2c(cc1O)CCN[C@]21CS[C@@H]2c3c(OC(C)=O)c(C)c4c(c3[C@H](COC1=O)N1[C@@H]2[C@H]2c3c(cc(C)c(OC)c3O)C[C@@H]([C@@H]1C#N)N2C)OCO4 [ECTEINASCIDIN 770] displays IC50 of 0.6

Entry C=CCOc1c(OC)c(C)cc2c1[C@@H]1[C@@H]3[C@@H]4SC[C@]5(C(=O)OC[C@H](c6c7c(c(C)c(OC(C)=O)c64)OCO7)N3[C@@H](C#N)[C@H](C2)N1C)c1cc(OC)c(O)cc1CCN5C(=O)/C=C/c1ccc([N+](=O)[O-])cc1 ; IC50 = 2.7

###

- Tested on: HCT-116
- Experiment: Cytotoxicity against human HCT116 cells after 4 days by MTT assay
- Type: functional, cell-based
- Protocol Conditions: HCT-116, 96 h
Quantity Kind: IC50 (nM)
Respond with the bare value in nM.

{"Smiles": "C=CCOc1cc2c(cc1OC)[C@@]1(CS[C@@H]3c4c(OC(C)=O)c(C)c5c(c4[C@@H](COC1=O)N1[C@@H]3[C@H]3c4c(cc(C)c(OC)c4OCC=C)C[C@@H]([C@@H]1C#N)N3C)OCO5)N(C(=O)c1cccc3ncccc13)CC2", "Quantity Kind": "IC50", "Measurement": 320}

Notebook: COc1cc2c(cc1O)CCN(C(=O)c1cccc3ncccc13)[C@]21CS[C@@H]2c3c(OC(C)=O)c(C)c4c(c3[C@@H](COC1=O)N1[C@@H]2[C@H]2c3c(cc(C)c(OC)c3O)C[C@@H]([C@@H]1C#N)N2C)OCO4 , IC50 read as 0.086

###

- Tested on: HCT-116
- Experiment: Cytotoxicity against human HCT116 cells after 4 days by MTT assay
- Assay type: functional, cell-based
- Protocol Conditions: HCT-116, 96 h
Quantity Kind: pIC50
In textbook form, pIC50 equals minus log to base ten of the concentration in mol/L.

Record excerpt, results attached:
{"Smiles": "COc1cc2c(cc1O)CCN(C(=O)c1cccnc1)[C@]21CS[C@@H]2c3c(OC(C)=O)c(C)c4c(c3[C@@H](COC1=O)N1[C@@H]2[C@H]2c3c(cc(C)c(OC)c3O)C[C@@H]([C@@H]1C#N)N2C)OCO4", "Target Desc": "HCT-116", "Measurement": 9.89}
{"Smiles": "C=CCOc1cc2c(cc1OC)[C@@]1(CS[C@@H]3c4c(OC(C)=O)c(C)c5c(c4[C@@H](COC1=O)N1[C@@H]3[C@H]3c4c(cc(C)c(OC)c4OCC=C)C[C@@H]([C@@H]1C#N)N3C)OCO5)N(C(=O)c1ccc3ncccc3c1)CC2", "Target Desc": "HCT-116", "Measurement": 6.82}
{"Smiles": "COc1cc2c(cc1O)CCN(C(=O)c1ccc([N+](=O)[O-])cc1)[C@]21CS[C@@H]2c3c(OC(C)=O)c(C)c4c(c3[C@@H](COC1=O)N1[C@@H]2[C@H]2c3c(cc(C)c(OC)c3O)C[C@@H]([C@@H]1C#N)N2C)OCO4", "Target Desc": "HCT-116", "Measurement": 9.42}

--- query ---
Field pIC50 (entry C=CCOc1cc2c(cc1OC)[C@@]1(CS[C@@H]3c4c(OC(C)=O)c(C)c5c(c4[C@@H](COC1=O)N1[C@@H]3[C@H]3c4c(cc(C)c(OC)c4OCC=C)C[C@@H]([C@@H]1C#N)N3C)OCO5)N(C(=O)c1ccc([N+](=O)[O-])cc1)CC2 ) reads 6.59
